Hello, the source for this data is the PolyMetriX glass transition set, in case you need it.

measured.parameter: glass transition temperature (°C)

Worked examples, 3 compounds total:
*Oc1ccc(S(=O)(=O)c2ccc(Oc3ccc(-c4ccc(*)cc4)cc3)cc2N)c(N)c1 (repeat unit); 242.20
*c1ccc2c(c1)C(=O)N(c1cccc(Oc3ccc(P(=O)(c4ccccc4)c4ccc(Oc5cccc(N6C(=O)c7ccc(C(*)(C(F)(F)F)C(F)(F)F)cc7C6=O)c5)cc4)cc3)c1)C2=O (repeat unit); 243.00
*O[Si](C)(C)O[Si](C)(C)Oc1c(C)cc(-c2cc(C)c(*)c(C)c2)cc1C (repeat unit); 55.00

a. *Oc1ccc(C(C)(C)c2ccc(OC(=O)CN(CC(*)=O)c3ccc(/N=N/c4ccc([N+](=O)[O-])cc4)cc3)cc2)cc1 (repeat unit)
b. *C(=O)c1ccc2c(c1)C(=O)N(c1cc(/C=N/C(=S)Nc3ccc(N4C(=O)c5ccc(*)cc5C4=O)cc3)ccc1Cl)C2=O (repeat unit)
Of a and b , whose reported glass transition temperature is the larger number? Refer to your chosen entry by its label in the reply.
b
(b: 274.00 °C, a: 152.00 °C)

I. *Oc1ccc(C2(c3ccc(OC(=O)CCCCCCCCC(*)=O)cc3)c3ccccc3-c3ccccc32)cc1 (repeat unit)
II. *C(=O)c1ccc2c(c1)C(=O)N(c1ccc(Sc3ccc(N4C(=O)c5ccc(*)cc5C4=O)cc3)cc1)C2=O (repeat unit)
Record comparison, field glass transition temperature: mark the lower of I and II . Mark your answer with the label of the selected entry.
I
(I: 151.00 °C, II: 276.00 °C)

A. *c1ccc2c(c1)C(=O)N(c1cccc(N3C(=O)c4ccc(C(*)(C(F)(F)F)C(F)(F)F)cc4C3=O)c1C)C2=O (repeat unit)
B. *CCN(CCOC(=O)Nc1ccc(Cc2ccc(NC(=O)O*)cc2)cc1)c1ccc(/N=N/c2ccc([N+](=O)[O-])cc2C)c(C)c1 (repeat unit)
Would you mind telling me which has the lower recorded glass transition temperature between A and B ? Return value: the label identifying the chosen record.
B
(B: 130.00 °C, A: 353.50 °C)

a. *O[Si](C)(C)O[Si](C)(C)O[Si](C)(C)O[Si](C)(C)Oc1c(C)cc(-c2cc(C)c(*)c(C)c2)cc1C (repeat unit)
b. *C(=O)Nc1cccc(Oc2ccc(S(=O)(=O)c3ccc(Oc4cccc(NC(=O)c5ccc(N6C(=O)c7ccc(*)cc7C6=O)cc5)c4)cc3)cc2)c1 (repeat unit)
Please state the entry with greater glass transition temperature among a and b . // respond with label for picked entry
b
(b: 235.00 °C, a: -16.00 °C)
